Overview of reported Emax at 1 µM across a group of molecules:
Molecular target: Human dopamine D4 receptor (Homo sapiens, UniProt P21917)
Sequence (P21917 1-419): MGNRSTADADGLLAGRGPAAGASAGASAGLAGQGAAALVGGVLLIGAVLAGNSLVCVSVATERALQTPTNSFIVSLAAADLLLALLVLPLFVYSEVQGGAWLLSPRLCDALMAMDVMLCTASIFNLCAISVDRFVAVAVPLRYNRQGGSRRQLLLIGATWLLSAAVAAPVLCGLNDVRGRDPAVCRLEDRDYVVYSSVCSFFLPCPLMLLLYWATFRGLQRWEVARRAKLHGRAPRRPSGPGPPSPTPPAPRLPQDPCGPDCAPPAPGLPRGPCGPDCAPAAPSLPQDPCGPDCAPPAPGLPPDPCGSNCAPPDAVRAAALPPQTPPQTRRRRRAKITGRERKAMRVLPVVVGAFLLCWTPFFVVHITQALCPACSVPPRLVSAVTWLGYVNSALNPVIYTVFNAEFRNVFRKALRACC
Test: Agonistic/antagonistic activity in G protein dependent pathway (aequorin intracellular calcium luminescence), D4
Type: cell-based
Parameters: expressed in transfected cells; host or cells: CHO-K1 or HEK293 cells
Details: read-out: Maximal activity on each receptor (%): D4
Respond with the bare value in %.

The recorded Emax at 1 µM with Human dopamine D4 receptor (Homo sapiens, UniProt P21917) for `Cc1ncc(CN2CC=C(c3cccnc3)CC2)cn1` was 86

The recorded Emax at 1 µM with Human dopamine D4 receptor (Homo sapiens, UniProt P21917) for `Cc1ncc(CN2CC=C(c3cccnc3)CC2)c(C)n1` was 66

The recorded Emax at 1 µM with Human dopamine D4 receptor (Homo sapiens, UniProt P21917) for `Cc1ncc(CN2CC=C(c3ccccn3)CC2)cn1` was 107

The recorded Emax at 1 µM with Human dopamine D4 receptor (Homo sapiens, UniProt P21917) for `Cc1cccc(C2=CCN(Cc3cnc(C)nc3N)CC2)n1` was 67

The recorded Emax at 1 µM with Human dopamine D4 receptor (Homo sapiens, UniProt P21917) for `Cc1ncc(CN2CCC(c3ccccn3)CC2)c(C)n1` was 64

The recorded Emax at 1 µM with Human dopamine D4 receptor (Homo sapiens, UniProt P21917) for `Cc1ncc(CN2CCC(c3cncc(F)c3)CC2)c(N)n1` was 64

The recorded Emax at 1 µM with Human dopamine D4 receptor (Homo sapiens, UniProt P21917) for `Nc1nc(C2CCCC2)ncc1CN1CC=C(c2ccccn2)CC1` was 93

###

Biological target: Human dopamine D4 receptor (Homo sapiens, UniProt P21917)
Sequence (P21917 1-419): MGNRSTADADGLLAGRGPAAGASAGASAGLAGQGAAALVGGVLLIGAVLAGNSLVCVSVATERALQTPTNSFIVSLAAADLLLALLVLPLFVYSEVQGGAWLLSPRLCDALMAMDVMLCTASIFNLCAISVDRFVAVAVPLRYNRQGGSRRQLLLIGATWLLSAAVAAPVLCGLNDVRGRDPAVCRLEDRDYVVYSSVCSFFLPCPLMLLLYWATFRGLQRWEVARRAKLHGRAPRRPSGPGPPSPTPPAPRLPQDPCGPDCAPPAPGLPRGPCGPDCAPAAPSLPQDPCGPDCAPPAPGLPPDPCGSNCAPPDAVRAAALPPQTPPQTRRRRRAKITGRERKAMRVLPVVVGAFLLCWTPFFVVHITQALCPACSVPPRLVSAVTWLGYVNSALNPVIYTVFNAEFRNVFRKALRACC
Test: Agonistic/antagonistic activity in G protein dependent pathway (aequorin intracellular calcium luminescence), D4
Assay type: cell-based
Set-up: expressed in transfected cells; host or cells: CHO-K1 or HEK293 cells
Details: 1 μM; against 10 μM endogenous ligand; read-out: Inhibitory activity on each receptor (%): D4
Assign 1 to entries whose inhibition at 1 µM meets or exceeds 90%; assign 0 to the rest.

# input Hello, I need to know if `Nc1ncc(CN2CCC(c3cccnc3)CC2)cn1` has measured inhibition at 1 µM not below 90%. Thanks!
# output 0

# input Hello, I need to know if `Nc1ncc(CN2CCC(c3cncc(F)c3)CC2)cn1` has measured inhibition at 1 µM not below 90%. Thanks!
# output 0

# input Hello, I need to know if `Cc1ncc(CN2CCC(c3cccnc3)CC2)c(C)n1` has measured inhibition at 1 µM not below 90%. Thanks!
# output 0

# input Hello, I need to know if `Cc1ncc(CN2CCC(c3ccccn3)CC2)c(C)n1` has measured inhibition at 1 µM not below 90%. Thanks!
# output 0

# input Hello, I need to know if `Cc1ncc(CN2CCC(c3cncc(F)c3)CC2)cn1` has measured inhibition at 1 µM not below 90%. Thanks!
# output 1

###

Molecular target: human adrenergic α1A receptor (Homo sapiens, UniProt P35348)
Construct: expressed in transfected cells; host or cells: CHO-K1 or HEK293 cells
Sequence (P35348 1-466): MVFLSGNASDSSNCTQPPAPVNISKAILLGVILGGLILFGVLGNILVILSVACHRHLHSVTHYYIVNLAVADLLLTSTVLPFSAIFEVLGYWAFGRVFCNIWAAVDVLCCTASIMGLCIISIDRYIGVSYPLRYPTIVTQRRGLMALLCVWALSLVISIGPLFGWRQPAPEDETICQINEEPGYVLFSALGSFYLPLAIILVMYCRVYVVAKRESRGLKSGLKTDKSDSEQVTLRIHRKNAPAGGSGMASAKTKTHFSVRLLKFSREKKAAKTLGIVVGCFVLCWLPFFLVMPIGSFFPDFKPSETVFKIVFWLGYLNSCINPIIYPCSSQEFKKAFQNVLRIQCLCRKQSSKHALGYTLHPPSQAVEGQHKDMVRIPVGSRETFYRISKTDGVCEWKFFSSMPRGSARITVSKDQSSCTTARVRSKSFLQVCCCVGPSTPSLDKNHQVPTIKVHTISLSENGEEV
Experiment: Agonistic/antagonistic activity in G protein dependent pathway (aequorin intracellular calcium luminescence), α1A
Type: cell-based
Details: 0.1 μM; against 10 μM endogenous ligand; read-out: Inhibitory activity on each receptor (%): α1A
Endpoint: inhibition at 0.1 µM (%)
Respond with the bare value in %.

| Mol | Tgt | inhibition at 0.1 µM / % |
| --- | --- | --- |
| Cc1ncc(CN2CCC(c3ccccn3)CC2)c(N)n1 | human adrenergic α1A receptor (Homo sapiens, UniProt P35348) | 2.1 |
| Cc1ncc(CN2CCC(c3cncc(F)c3)CC2)cn1 | human adrenergic α1A receptor (Homo sapiens, UniProt P35348) | -34 |

Turning to the following compound.
Sure, the documented inhibition at 0.1 µM for `Nc1ncc(CN2CCC(c3cncc(F)c3)CC2)cn1` is -6.4

###

biological target: Human dopamine D4 receptor (Homo sapiens); assay: Agonistic/antagonistic activity in G protein dependent pathway (aequorin intracellular calcium luminescence), D4; assay type: cell-based; design: expressed in transfected cells; host or cells: CHO-K1 or HEK293 cells; conditions: read-out: Maximal activity on each receptor (%): D4
Classification scheme (Emax at 1 µM): b0 = under 60%, b1 = from 60% up to 80%, b2 = 80% and over

As a guide, the following entries are already answered.
| Molecule | Class Label |
| --- | --- |
| Nc1nc(C2CC2)ncc1CN1CC=C(c2ccccn2)CC1 | b1 |
| Cc1ccnc(C2=CCN(Cc3cnc(C)nc3N)CC2)c1 | b2 |
| Nc1ncc(CN2CCC(c3cncc(F)c3)CC2)cn1 | b0 |
| Nc1nc(C2CCCC2)ncc1CN1CCC(c2cccnc2)CC1 | b2 |
| Cc1ncc(CN2CCC(c3cncc(F)c3)CC2)cn1 | b0 |
| Cc1ncc(CN2CCC(c3ccccn3)CC2C)c(N)n1 (centres unmarked) | b0 |
| Cc1cncc(C2CCN(Cc3cnc(C)nc3N)CC2)c1 | b1 |
| CC(C)c1ncc(CN2CC=C(c3ccccn3)CC2)c(N)n1 | b2 |
| Nc1ncc(CN2CCC(c3cccnc3)CC2)cn1 | b0 |
| CCc1ncc(CN2CC=C(c3cccnc3)CC2)c(N)n1 | b2 |

# input Hi, small favor: classify `Cc1ncc(CN2CC=C(c3cncc(F)c3)CC2)c(N)n1` by its Emax at 1 µM when you get a moment.
# output b1

# input Hi, small favor: classify `Cc1ncc(CN2CC=C(c3ccccn3)CC2)c(N)n1` by its Emax at 1 µM when you get a moment.
# output b1

# input Hi, small favor: classify `CC(C)c1ncc(CN2CC=C(c3cccnc3)CC2)c(N)n1` by its Emax at 1 µM when you get a moment.
# output b2

# input Hi, small favor: classify `Cc1ncc(CN2CC=C(c3cccc(Cl)n3)CC2)c(N)n1` by its Emax at 1 µM when you get a moment.
# output b0

# input Hi, small favor: classify `CNc1nc(C)ncc1CN1CC=C(c2cccnc2)CC1` by its Emax at 1 µM when you get a moment.
# output b1

# input Hi, small favor: classify `Cc1ncc(CN2CCC(c3cc4ccccc4cn3)CC2)c(N)n1` by its Emax at 1 µM when you get a moment.
# output b1
